// data source = ChEMBL document CHEMBL2176969

Assay: Induction of nitrite release in phosphate buffer at pH 10 at 50 uM after 1.5 hrs by Griess reaction
Type: physicochemical
Conditions: Tris buffer, pH 10, 1.5 h, in the assay text read “Tris buffer” for “phosphate buffer”
reported.endpoint: Activity (%)

Query: Activity; subject: `COS(=O)(=O)CCO/N=[N+](\[O-])NC(C)C`
42

Query: Activity; subject: `CC(C)N/[N+]([O-])=N/OCS(C)(=O)=O`
4.6

Query: Activity; subject: `CC(C)N[N+]([O-])=N[O-].[Na+]`
36

Query: Activity; subject: `CC(C)N/[N+]([O-])=N/OCCS(C)(=O)=O`
26

1: CC(C)N(C(=O)OC(C)(C)C)/[N+]([O-])=N/OCCS(C)(=O)=O
2: CONS(=O)(=O)CCO/N=[N+](\[O-])NC(C)C
Compare 1 and 2 by numeric Activity and name the larger one. Kindly give the label for the entry you pick.
1
(1: 25.4%, 2: 10.4%)
